- test system: Very long chain fatty acid elongase 6 (Homo sapiens)
- Sequence (Q9H5J4 whole entry): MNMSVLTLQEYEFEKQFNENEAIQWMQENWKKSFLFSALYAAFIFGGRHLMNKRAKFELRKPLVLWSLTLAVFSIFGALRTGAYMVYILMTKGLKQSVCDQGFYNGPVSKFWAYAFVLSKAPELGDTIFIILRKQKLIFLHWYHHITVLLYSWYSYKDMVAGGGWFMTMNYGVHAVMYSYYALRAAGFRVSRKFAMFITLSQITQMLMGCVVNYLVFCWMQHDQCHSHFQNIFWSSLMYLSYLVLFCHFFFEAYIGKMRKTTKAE
- assay text: Inhibition of human ELOVL6 expressed in african green monkey COS7 cells assessed as palmitoyl-CoA elongation
endpoint name: IC50 (µM)

- compound: "Cc1[nH]n(-c2ccccc2)c(=O)c1C1(C(F)(F)F)C(=O)N(c2ccccc2)C2=C1C(=O)CCC2 (stereo not drawn)"
  endpoint name: "IC50"
  measured: 4.5

[I] Cc1[nH]n(C)c(=O)c1C1(C(F)(F)F)C(=O)N(c2ccccc2)C2=C1C(=O)CC(C)(C)C2 (stereo not drawn)
[II] Cc1[nH]n(-c2ccccc2)c(=O)c1C1(C(F)(F)F)C(=O)N(c2ccccc2)C2=C1C(=O)CC1(CCC1)C2 (stereo not drawn)
[III] Cc1[nH]n(-c2ccccc2)c(=O)c1C1(C(F)(F)F)C(=O)N(c2ccccc2)C2=C1C(=O)CC(C)C2 (stereo not drawn)
[IV] Cc1[nH]n(-c2ccccc2)c(=O)c1C1(C(F)(F)F)C(=O)N(c2ccccc2)C2=C1C(=O)CC(c1ccccc1)C2 (stereo not drawn)
Write the entries in order, lowest recorded IC50 first. Return the labels ranked in the requested order, please.
II, III, I, IV

---

- assay text: Plasma concentration in mouse at 1 mg/kg, po after 24 hrs
- Assay type: ADME, organism-based
- Parameters: dose 1 mg/kg, route oral
endpoint name: concentration at 24 h (nM)
Dear colleague, please return just the value in nM, with no unit written.

Which concentration at 24 h is listed for Cc1[nH]n(-c2ccc(OC(F)(F)F)cc2)c(=O)c1C1(C(F)(F)F)C(=O)N(c2ccccc2)C2=C1C(=O)CC(C)(C)C2 (stereo unspecified) ?
400

---

- assay text: Drug level in mouse liver at 10 mg/kg, po after 2 hrs
- Type: ADME, organism-based
- Parameters: dose 10 mg/kg, route oral
- particulars: read-out: Drug uptake
endpoint name: concentration at 2 h (µM)
Dear colleague, please return just the value in µM, with no unit written.

Endpoint output: concentration at 2 h of Cc1[nH]n(-c2ccc(OC(F)(F)F)cc2)c(=O)c1C1(C(F)(F)F)C(=O)N(c2ccccc2)C2=C1C(=O)CC(C)(C)C2 (stereo unspecified) . Value?
50

---

- test system: Very long chain fatty acid elongase 3 (Mus musculus, UniProt O35949)
- Sequence (O35949 whole entry): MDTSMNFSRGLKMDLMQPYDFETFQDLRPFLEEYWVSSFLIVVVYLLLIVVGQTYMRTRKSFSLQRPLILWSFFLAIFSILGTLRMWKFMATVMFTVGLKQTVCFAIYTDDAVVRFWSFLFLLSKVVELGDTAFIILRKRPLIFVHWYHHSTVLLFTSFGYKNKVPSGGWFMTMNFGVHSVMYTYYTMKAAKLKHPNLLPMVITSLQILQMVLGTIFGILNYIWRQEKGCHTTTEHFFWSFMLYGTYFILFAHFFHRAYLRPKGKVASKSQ
- assay text: Inhibition of mouse ELOVL3 expressed in african green monkey COS7 cells
endpoint name: pIC50
Schema: pIC50 number; meaning minus log10 of the concentration expressed in molar units.

Bench note: what pIC50 did Cc1[nH]n(-c2ccc(OC(F)(F)F)cc2)c(=O)c1C1(C(F)(F)F)C(=O)N(c2ccccc2)C2=C1C(=O)CC(C)(C)C2 (stereo unspecified) show?
6.71

---

- test system: Very long chain fatty acid elongase 3 (Homo sapiens, UniProt Q9HB03)
- Sequence (Q9HB03 whole entry): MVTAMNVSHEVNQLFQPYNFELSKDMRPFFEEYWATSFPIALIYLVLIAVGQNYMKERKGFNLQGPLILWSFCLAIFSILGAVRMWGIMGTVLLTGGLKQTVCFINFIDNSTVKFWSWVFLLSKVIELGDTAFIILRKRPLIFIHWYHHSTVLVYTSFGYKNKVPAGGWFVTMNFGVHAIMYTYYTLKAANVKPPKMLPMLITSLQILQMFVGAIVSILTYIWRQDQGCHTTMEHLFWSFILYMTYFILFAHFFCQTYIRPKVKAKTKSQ
- assay text: Inhibition of human ELOVL3 expressed in african green monkey COS7 cells assessed as stearoyl-CoA elongation
endpoint name: IC50 (nM)

- compound: "Cc1[nH]n(-c2ccc(OC(F)(F)F)cc2)c(=O)c1C1(C(F)(F)F)C(=O)N(c2ccccc2)C2=C1C(=O)CC(C)(C)C2 (stereo unspecified)"
  test system: "Very long chain fatty acid elongase 3 (Homo sapiens, UniProt Q9HB03)"
  endpoint name: "IC50"
  measured: 337

[P] COc1ccc(-n2[nH]c(C)c(C3(C(F)(F)F)C(=O)N(c4ccccc4)C4=C3C(=O)CC(C)(C)C4)c2=O)cc1 (stereo unspecified)
[Q] Cc1[nH]n(-c2ccc(C#N)cc2)c(=O)c1C1(C(F)(F)F)C(=O)N(c2ccccc2)C2=C1C(=O)CC(C)(C)C2 (stereo unspecified)
Which has the higher IC50, P or Q ? Write down the label attached to your selection.
Q

[a] Cc1ccc(-n2[nH]c(C)c(C3(C(F)(F)F)C(=O)N(c4ccccc4)C4=C3C(=O)CC(C)(C)C4)c2=O)cc1 (stereo unspecified)
[b] Cc1[nH]n(-c2ccc(C(C)C)cc2)c(=O)c1C1(C(F)(F)F)C(=O)N(c2ccccc2)C2=C1C(=O)CC(C)(C)C2 (stereo unspecified)
[c] Cc1[nH]n(-c2ccc(Cl)cc2)c(=O)c1C1(C(F)(F)F)C(=O)N(c2ccccc2)C2=C1C(=O)CC(C)(C)C2 (stereo unspecified)
// ranking: key=IC50, reverse=True State the ranking by listing the labels in the requested order.
a, c, b

Each recorded value in this set is attributed to ChEMBL document CHEMBL1138496.
